The values you see were collected from patent US20180258158A1.

# MSA kd/Parent kd values compiled below
- testedSystem: T1, mouse serum albumin (MSA), full length (mouse, UniProt P07724 25-608)
- T1 construct: mature; Immobilized on CM5 chip (SPR) or coated on plates (ELISA); also called mouse albumin; murine serum albumin
- assayOverview: SPR off-rate ratio to parent ADX_7016_A01, MSA, 25 C

Example entries begin here.
ADX_6727_G10 (Y35S/K85A) (designed binder, Full His6-tagged entry) MGVSDVPRDLEVVAATPTSLLISWDAPAVTVRYYRITYGREVQKSSDLGPLYIYQEFTVPGSKSTATISGLKPGVDYTITVYAVTGSGESPASSAPISINYRTEIDKPSQHHHHHH ... 3.2
ADX_6727_D03 (L41S) (designed binder, Full His6-tagged entry) MGVSDVPRDLEVVAATPTSLLISWDAPAVTVRYYRITYGREVQKYSDLGPSYIYQEFTVPGSKSTATISGLKPGVDYTITVYAVTGSGESPASSKPISINYRTEIDKPSQHHHHHH ... 31.3
ADX_6727_F10 (Y35A/K85T) (designed binder, Full His6-tagged entry) MGVSDVPRDLEVVAATPTSLLISWDAPAVTVRYYRITYGREVQKASDLGPLYIYQEFTVPGSKSTATISGLKPGVDYTITVYAVTGSGESPASSTPISINYRTEIDKPSQHHHHHH ... 3.6

Q: What measured MSA kd/Parent kd goes with ADX_6727_H10 (L41S/K85S) (designed binder, Full His6-tagged entry) MGVSDVPRDLEVVAATPTSLLISWDAPAVTVRYYRITYGREVQKYSDLGPSYIYQEFTVPGSKSTATISGLKPGVDYTITVYAVTGSGESPASSSPISINYRTEIDKPSQHHHHHH ?
Ans: 34

Q: Can you share its MSA kd/Parent kd? I mean this binder: ADX_6727_B04 (Y35S/K85S) (designed binder, Full His6-tagged entry) MGVSDVPRDLEVVAATPTSLLISWDAPAVTVRYYRITYGREVQKSSDLGPLYIYQEFTVPGSKSTATISGLKPGVDYTITVYAVTGSGESPASSSPISINYRTEIDKPSQHHHHHH
Ans: 3.3

Q: Quick one: MSA kd/Parent kd for ADX_6727_G06 (Y35A/K85S) (designed binder, Full His6-tagged entry) MGVSDVPRDLEVVAATPTSLLISWDAPAVTVRYYRITYGREVQKASDLGPLYIYQEFTVPGSKSTATISGLKPGVDYTITVYAVTGSGESPASSSPISINYRTEIDKPSQHHHHHH ?
Ans: 3.3

Q: Look up MSA kd/Parent kd: ADX_6727_H06 (Y44Q/K85T) (designed binder, Full His6-tagged entry) MGVSDVPRDLEVVAATPTSLLISWDAPAVTVRYYRITYGREVQKYSDLGPLYIQQEFTVPGSKSTATISGLKPGVDYTITVYAVTGSGESPASSTPISINYRTEIDKPSQHHHHHH
Ans: 33.5

Q: What MSA kd/Parent kd value was documented for this binder, ADX_6727_A07 (Y44S/K85T) (designed binder, Full His6-tagged entry) MGVSDVPRDLEVVAATPTSLLISWDAPAVTVRYYRITYGREVQKYSDLGPLYISQEFTVPGSKSTATISGLKPGVDYTITVYAVTGSGESPASSTPISINYRTEIDKPSQHHHHHH ?
Ans: 5.2

Q: Bench note: what MSA kd/Parent kd did ADX_7016_E02 (L38T) (designed binder, Full His6-tagged entry; also called 6727_E08) MGVSDVPRDLEVVAATPTSLLISWDAPAVTVRYYRITYGREVQKYSDTGPLYIYQEFTVPGSKSTATISGLKPGVDYTITVYAVTGSGESPASSKPISINYRTEIDKPSQHHHHHH show?
Ans: 57.8
